target: human activated blood coagulation factor X (Homo sapiens, UniProt P00742); assay: Measurement of enzyme inhibition by a synthetic substrate method (S-2222); settings: 37° C., 15 minutes, absorbance at 405 nm
Sequence (P00742 235-488 limits assumed): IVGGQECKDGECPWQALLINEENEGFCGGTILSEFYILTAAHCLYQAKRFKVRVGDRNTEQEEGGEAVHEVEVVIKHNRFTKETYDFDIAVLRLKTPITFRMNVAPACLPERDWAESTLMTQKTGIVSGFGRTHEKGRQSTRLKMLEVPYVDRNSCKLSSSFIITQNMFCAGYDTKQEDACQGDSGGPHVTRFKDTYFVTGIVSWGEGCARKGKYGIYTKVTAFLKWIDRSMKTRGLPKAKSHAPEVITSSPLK
Sequence (P00742 41-179 partner limits assumed): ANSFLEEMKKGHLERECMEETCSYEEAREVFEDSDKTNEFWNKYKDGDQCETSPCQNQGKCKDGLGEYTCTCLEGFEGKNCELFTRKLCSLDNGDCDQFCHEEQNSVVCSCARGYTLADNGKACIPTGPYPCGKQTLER
Where a name gives a salt, the structure may show the parent alone.
Readout kind: pIC50
Just the number, please; pIC50 means minus log10 of the concentration in mol/L.

• CNS(=O)(=O)N(Cc1ccc2ccc(C(=N)N)cc2c1)c1ccc(OC2CCN(C(C)=N)CC2)cc1 [Example 79, dihydrochloride] = 7.04

// switching to the query compound
Q) So what's the measured pIC50 for this one? CCOC(=O)CNS(=O)(=O)N(Cc1ccc2ccc(C(=N)N)cc2c1)c1ccc(OC2CCN(C(C)=N)CC2)cc1 [Example 88, dihydrochloride]
A) 7.33
